meta.source: PubChem BioAssay

target.entity: Neurogenic locus notch homolog protein 3 (Homo sapiens) (UniProt Q9UM47)
Sequence (Q9UM47 whole entry, looked up): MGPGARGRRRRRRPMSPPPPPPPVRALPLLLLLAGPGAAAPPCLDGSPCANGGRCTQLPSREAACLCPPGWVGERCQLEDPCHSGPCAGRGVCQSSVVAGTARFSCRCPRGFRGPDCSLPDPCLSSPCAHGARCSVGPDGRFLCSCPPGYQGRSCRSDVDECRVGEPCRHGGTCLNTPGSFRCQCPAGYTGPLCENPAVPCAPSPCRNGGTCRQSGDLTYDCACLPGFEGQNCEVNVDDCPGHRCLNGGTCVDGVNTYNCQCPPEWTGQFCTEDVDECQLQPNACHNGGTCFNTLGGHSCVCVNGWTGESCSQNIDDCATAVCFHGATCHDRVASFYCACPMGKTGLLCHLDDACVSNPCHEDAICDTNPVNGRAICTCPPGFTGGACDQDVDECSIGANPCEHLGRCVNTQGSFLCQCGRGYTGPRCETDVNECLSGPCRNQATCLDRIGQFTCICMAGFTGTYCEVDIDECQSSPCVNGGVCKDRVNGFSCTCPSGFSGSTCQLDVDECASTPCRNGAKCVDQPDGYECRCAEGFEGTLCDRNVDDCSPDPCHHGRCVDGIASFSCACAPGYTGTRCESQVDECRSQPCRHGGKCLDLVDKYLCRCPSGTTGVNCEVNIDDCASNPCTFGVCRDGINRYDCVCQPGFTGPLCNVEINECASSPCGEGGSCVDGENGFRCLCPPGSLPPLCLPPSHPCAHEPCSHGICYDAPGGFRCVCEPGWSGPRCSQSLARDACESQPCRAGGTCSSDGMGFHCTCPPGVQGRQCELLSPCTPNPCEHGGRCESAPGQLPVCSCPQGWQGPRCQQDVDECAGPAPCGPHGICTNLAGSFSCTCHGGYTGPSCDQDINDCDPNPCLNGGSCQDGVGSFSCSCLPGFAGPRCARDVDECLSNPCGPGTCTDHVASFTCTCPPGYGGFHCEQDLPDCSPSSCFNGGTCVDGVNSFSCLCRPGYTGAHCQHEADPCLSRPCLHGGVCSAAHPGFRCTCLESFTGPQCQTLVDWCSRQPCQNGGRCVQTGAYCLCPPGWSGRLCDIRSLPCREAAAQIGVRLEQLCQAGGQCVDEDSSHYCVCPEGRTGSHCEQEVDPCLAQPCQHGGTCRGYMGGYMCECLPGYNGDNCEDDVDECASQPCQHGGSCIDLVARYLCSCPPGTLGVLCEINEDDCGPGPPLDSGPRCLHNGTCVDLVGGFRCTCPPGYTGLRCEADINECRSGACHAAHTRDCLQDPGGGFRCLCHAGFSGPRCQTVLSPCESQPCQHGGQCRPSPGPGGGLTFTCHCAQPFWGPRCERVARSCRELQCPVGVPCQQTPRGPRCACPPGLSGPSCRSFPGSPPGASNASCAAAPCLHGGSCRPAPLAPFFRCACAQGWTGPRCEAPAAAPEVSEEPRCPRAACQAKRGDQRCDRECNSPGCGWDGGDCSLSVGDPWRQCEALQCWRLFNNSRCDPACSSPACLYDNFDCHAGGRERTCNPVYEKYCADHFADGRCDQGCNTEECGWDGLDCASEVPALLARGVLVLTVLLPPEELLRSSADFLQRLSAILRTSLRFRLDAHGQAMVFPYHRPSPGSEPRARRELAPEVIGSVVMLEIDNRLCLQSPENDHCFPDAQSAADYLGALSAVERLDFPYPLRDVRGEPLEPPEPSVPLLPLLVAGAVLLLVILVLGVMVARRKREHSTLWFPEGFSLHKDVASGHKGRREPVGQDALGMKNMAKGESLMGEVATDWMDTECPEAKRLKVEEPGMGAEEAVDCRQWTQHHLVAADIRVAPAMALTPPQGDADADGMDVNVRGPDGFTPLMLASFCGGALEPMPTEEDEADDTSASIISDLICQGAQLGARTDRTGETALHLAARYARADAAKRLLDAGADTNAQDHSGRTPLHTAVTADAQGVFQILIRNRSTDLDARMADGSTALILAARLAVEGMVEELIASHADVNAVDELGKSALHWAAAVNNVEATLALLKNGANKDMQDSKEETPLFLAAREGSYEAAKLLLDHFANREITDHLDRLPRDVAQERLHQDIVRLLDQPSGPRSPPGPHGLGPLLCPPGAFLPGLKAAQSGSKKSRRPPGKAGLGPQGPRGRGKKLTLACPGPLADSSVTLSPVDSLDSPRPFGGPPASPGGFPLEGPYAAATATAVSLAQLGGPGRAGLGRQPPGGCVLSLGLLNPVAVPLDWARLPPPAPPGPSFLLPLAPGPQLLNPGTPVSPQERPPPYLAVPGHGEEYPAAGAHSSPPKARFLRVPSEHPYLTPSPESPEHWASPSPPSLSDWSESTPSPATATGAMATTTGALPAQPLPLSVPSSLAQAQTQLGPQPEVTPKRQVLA
test: NOTCH3 binders on small-molecule microarray, primary screen, biochemical, 635/667 nm fluorescence (AID 1096)
condition.info: NOTCH3 binding, 635 nm fluorescence, higher = more signal
Give composite z-score for every item shown.
A bare number is all that is needed in reply.

Quick one: composite z-score of "O=C1O[C@@H](c2ccccc2)[C@@H](c2ccccc2)N2[C@@H](c3ccc(OCCO)cc3)[C@]3(C(=O)Nc4ccc(C#CCCO)cc43)[C@@H](C(=O)Nc3nc4ccccc4s3)[C@H]12" ?
1.06

Quick one: composite z-score of "CO[C@H]1O[C@H](CO)[C@@H](OC(=O)Nc2ccccc2)[C@@H]2OC(=O)[C@H](Cc3ccccc3)C/C=C/C[C@@H](Cc3ccccc3)C(=O)O[C@@H]12" ?
0.702

Quick one: composite z-score of "Cc1ccc(S[C@]2(C(=O)NCC(F)(F)F)CC(=O)N(C3CCCCC3)[C@@H]2c2ccc(CO)cc2)cc1" ?
-0.107

Quick one: composite z-score of "COC(=O)[C@@]1(CCC(=O)OC(C)(C)C)N=C(c2ccc(OCCCO)cc2)O[C@H]1c1ccccc1CN=[N+]=[N-]" ?
0.235

Quick one: composite z-score of "COC(=O)[C@@]1(Cc2ccc(OC)cc2)[C@@H]2[C@@H](CC(=O)[C@H]2CC(=O)C(=O)N2CCCC2)CN1C(=O)c1ccccc1" ?
1.09

Quick one: composite z-score of "Cc1c(NC(=O)/C(C#N)=C/c2ccc(Cl)cc2)c(=O)n(-c2ccccc2)n1C" ?
0.992

Quick one: composite z-score of "CCCCC(=C=CC[C@@H](O)c1cccc(OCCO)c1)CCO" ?
0.098

Quick one: composite z-score of "COc1cccc(OC)c1C(=O)O[C@H]1[C@@H]2OC(=O)[C@H](Cc3cccc(Br)c3)C/C=C/C[C@@H](Cc3cccc(Br)c3)C(=O)O[C@H]2[C@@H](OC)O[C@@H]1CO" ?
0.541

Quick one: composite z-score of C=CCC(OC(C)=O)[C@@H]1[C@@H](N(Cc2ccc(-c3ccccc3)cc2)C(=O)c2ccc(C)cc2)c2cc(OCCCO)ccc2N1C(=O)c1ccc2ccccc2c1 (stereo partly specified) ?
0.305

Quick one: composite z-score of CCCCC(O)C1C=CC2C(=O)N(C)C(=O)C2N1Nc1ccccc1 (stereo unspecified) ?
0.51

Quick one: composite z-score of "CCc1cccc(NC(=O)O[C@H]2[C@H](OC(=O)Nc3ccc4c(c3)OCO4)[C@H](OC(=O)Nc3ccc4c(c3)OCO4)[C@@H](OC)O[C@@H]2CO)c1" ?
1.08

Quick one: composite z-score of "CN(C)CCCC[C@@H]1NC(=O)[C@H]2C[C@@H](C(=O)O)[C@@H](c3cccc(OCCO)c3)N2C1=O" ?
0.87

Quick one: composite z-score of "CN(C)C(=O)[C@@]1(CCS(=O)(=O)c2ccccc2)N=C(c2ccc(OCCCO)cc2)O[C@H]1c1ccccc1N=[N+]=[N-]" ?
1.11

Quick one: composite z-score of "CO[C@H]1O[C@H](CO)[C@@H](OC(=O)Nc2ccc(C(F)(F)F)cc2)[C@H](OC(=O)Nc2ccccc2-c2ccccc2)[C@@H]1OC(=O)Nc1ccccc1-c1ccccc1" ?
1.02

Quick one: composite z-score of C=CCC(OC(C)=O)[C@@H]1[C@@H](N(Cc2ccc(-c3cccc(C(F)(F)F)c3)o2)C(=O)Cc2ccc(OC)cc2)c2cc(OCCCO)ccc2N1C(=O)c1ccc2ccccc2n1 (stereo partly specified) ?
-0.412

Quick one: composite z-score of C[C@H]1C2[C@H](Cc3ccccc3)NC(=O)[C@]23C(=O)NCC(=O)N2CCC[C@H]2C(=O)NC/C=C\C/C=C/C3[C@@H]2O[C@]12C (stereo partly specified) ?
0.105
